# ASSAY_SYSTEM: ABCB1 (P-glycoprotein) (Homo sapiens)
# Sequence (P08183 whole entry): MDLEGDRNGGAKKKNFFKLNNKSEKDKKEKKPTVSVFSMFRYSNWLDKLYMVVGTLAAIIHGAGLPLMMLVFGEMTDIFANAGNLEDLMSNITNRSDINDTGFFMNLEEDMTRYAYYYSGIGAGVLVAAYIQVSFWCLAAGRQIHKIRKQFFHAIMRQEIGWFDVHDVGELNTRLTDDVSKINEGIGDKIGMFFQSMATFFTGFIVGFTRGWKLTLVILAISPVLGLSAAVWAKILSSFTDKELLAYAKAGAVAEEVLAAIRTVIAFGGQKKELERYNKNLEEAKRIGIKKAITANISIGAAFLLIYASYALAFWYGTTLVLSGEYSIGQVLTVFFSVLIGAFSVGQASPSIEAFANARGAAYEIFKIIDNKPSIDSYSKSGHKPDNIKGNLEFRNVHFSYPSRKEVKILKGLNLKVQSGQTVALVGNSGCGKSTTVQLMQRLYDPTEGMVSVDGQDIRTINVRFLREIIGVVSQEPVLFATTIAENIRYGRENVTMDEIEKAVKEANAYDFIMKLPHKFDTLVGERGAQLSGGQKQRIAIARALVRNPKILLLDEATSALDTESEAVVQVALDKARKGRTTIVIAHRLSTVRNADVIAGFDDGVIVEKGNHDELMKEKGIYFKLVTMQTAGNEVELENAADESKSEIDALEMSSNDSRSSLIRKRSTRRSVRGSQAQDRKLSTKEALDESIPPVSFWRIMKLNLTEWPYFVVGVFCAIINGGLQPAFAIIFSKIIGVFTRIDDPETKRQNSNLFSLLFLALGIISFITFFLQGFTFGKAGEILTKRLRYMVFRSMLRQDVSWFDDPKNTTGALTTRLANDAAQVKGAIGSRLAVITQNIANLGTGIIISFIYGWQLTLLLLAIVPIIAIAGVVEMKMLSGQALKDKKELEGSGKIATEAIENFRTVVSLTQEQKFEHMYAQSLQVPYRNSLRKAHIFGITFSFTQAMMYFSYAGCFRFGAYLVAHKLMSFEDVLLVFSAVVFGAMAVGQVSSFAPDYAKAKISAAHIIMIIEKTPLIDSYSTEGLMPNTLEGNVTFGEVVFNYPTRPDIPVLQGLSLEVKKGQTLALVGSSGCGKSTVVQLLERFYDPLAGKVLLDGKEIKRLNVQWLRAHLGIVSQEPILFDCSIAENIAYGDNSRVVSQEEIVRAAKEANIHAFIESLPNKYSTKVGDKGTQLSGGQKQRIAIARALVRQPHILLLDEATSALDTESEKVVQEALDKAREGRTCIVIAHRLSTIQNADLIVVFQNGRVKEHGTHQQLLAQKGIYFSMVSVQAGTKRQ
MEASURED_METRIC: IC50 (nM)
Reply numerically in nM, unit not repeated.

Short answer for `COc1cc2nccc(Oc3ccc(NC(=O)Nc4cc(C)on4)c(Cl)c3)c2cc1OC` : IC50 was 2900

###

# Tested on: HEK293/pcDNA3.1
# ASSAY_COMMENT: cells
# CONDITION_SET: Homo sapiens, HEK293, 72 h, read-out: IC50 ± SD^†; nM (resistance fold) / HEK293/pcDNA3.1
As shown below, each of these compounds has a reported IC50 value.

# count of solved cases: 2
>>> print(df.to_string())
                         chemical_structure   result
0  O=C1c2c(O)ccc(O)c2C(=O)c2c(NCCNCCO)ccc(NCCNCCO)c21  35.7 nM
1  CCc1c2c(nc3ccc(O)cc13)-c1cc3c(c(=O)n1C2)COC(=O)[C@]3(O)CC   2.1 nM

Would you kindly look at the next entry?
In plain terms, `COc1cccc2c1C(=O)c1c(O)c3c(c(O)c1C2=O)C[C@@](O)(C(=O)CO)C[C@@H]3O[C@H]1C[C@H](N)[C@H](O)[C@H](C)O1` has a documented IC50 of 16.6 nM
